residual activity listing for selected molecules.
tgt: CDK6 CCND1 (human) (UniProt Q00534+P24385)
Sequence (P24385 whole entry, looked up): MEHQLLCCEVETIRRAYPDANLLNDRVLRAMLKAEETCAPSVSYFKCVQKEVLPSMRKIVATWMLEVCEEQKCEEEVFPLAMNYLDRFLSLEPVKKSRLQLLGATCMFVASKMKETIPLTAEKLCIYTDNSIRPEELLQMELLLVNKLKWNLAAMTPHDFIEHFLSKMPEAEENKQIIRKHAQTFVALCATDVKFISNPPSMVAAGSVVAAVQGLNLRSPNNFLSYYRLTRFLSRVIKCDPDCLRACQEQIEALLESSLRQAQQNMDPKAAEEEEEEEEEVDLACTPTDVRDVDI
Sequence (Q00534 whole entry, looked up): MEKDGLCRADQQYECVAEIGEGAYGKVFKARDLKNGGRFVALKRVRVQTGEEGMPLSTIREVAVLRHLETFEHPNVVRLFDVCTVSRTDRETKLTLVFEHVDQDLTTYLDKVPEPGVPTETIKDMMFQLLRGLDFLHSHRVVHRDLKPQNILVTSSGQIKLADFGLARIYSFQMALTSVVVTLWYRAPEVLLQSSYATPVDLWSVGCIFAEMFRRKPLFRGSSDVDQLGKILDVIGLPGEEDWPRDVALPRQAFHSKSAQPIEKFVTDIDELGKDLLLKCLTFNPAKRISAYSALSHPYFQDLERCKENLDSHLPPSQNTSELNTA
experiment summary: radiometric filter-binding kinase assay, Kinase HotSpot
condition set: compound 0.5 µM; ATP 10 µM
# number only, unit % dropped from output

Solved entries (count: 3):
molecule	property measured	experimental value
Cc1cc(Nc2cc(N3CCN(C)CC3)nc(Sc3ccc(NC(=O)C4CC4)cc3)n2)[nH]n1	residual activity	95.2
O=c1cc(N2CCNCC2)oc2c(-c3ccccc3)cccc12	residual activity	94.6
Nc1n[nH]c2nnc(-c3c(-c4ccccc4)nn4ccccc34)cc12	residual activity	100

Q) What value of measured residual activity is listed for CC(C)[C@H](CO)Nc1nc(Nc2cccc(Cl)c2)c2ncn(C(C)C)c2n1 ?
A) 67.5

Q) Give the measured residual activity of O=C1Nc2ccccc2/C1=C\c1c(Cl)[nH]c2ccccc12 .
A) 105

====

This section presents compounds with their documented residual activity values.
tgt: PRKCD (human) (UniProt Q05655)
Sequence (Q05655 whole entry, looked up): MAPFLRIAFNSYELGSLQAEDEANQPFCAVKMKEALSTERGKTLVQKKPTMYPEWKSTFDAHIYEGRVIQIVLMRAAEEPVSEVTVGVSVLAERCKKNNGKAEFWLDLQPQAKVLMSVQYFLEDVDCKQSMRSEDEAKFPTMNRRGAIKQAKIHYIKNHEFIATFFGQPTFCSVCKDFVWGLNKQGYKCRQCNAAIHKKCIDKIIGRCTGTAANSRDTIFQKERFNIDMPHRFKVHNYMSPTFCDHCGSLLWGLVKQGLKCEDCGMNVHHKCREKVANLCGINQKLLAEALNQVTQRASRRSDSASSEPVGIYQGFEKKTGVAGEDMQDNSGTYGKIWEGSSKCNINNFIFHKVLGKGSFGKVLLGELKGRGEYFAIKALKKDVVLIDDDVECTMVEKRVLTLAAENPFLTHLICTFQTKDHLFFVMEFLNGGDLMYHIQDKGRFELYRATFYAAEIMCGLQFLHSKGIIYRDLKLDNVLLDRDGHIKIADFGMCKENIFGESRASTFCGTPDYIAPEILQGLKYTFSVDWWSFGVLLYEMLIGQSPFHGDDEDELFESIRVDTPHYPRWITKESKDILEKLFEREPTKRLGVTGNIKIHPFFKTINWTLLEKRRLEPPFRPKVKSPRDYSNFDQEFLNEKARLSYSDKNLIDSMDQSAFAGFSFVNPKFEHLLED
experiment summary: radiometric filter-binding kinase assay, Kinase HotSpot
condition set: compound 0.5 µM; ATP 10 µM
Use % as the unit, but write only the number.

Q) Would you mind telling me what residual activity value was observed for O=C1Nc2cc(Br)ccc2/C1=C1/Nc2ccccc2/C1=N\O ?
A) 103

Q) Sample Clc1ccc(Nc2nnc(Cc3ccncc3)c3ccccc23)cc1 — what was its residual activity?
A) 97.4

Q) Entry CSc1nc(-c2ccc(F)cc2)c(-c2ccnc(NC(C)c3ccccc3)c2)[nH]1 (stereo unspecified) has what residual activity?
A) 89.1

====

Quick reference for residual activity among some molecules
Tested on: ARAF (human), P10398 [Y301D/Y302D]
Sequence (P10398 whole entry Y301D/Y302D, looked up): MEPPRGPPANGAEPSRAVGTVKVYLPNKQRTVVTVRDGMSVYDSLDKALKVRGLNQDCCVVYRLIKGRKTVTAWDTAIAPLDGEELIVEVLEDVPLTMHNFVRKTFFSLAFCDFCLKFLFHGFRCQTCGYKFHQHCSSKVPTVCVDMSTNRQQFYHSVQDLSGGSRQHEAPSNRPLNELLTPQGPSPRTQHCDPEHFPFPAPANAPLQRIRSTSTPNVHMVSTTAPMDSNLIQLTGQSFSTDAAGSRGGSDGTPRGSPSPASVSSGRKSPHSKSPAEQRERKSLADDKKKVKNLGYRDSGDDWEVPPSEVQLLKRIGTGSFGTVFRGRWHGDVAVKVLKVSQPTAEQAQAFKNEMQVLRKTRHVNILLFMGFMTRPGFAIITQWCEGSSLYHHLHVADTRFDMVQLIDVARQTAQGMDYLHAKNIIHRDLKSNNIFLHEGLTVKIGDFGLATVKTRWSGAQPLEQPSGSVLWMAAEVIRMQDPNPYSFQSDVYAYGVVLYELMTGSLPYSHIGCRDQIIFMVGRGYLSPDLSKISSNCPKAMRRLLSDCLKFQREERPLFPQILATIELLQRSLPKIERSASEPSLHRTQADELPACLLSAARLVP
experiment summary: radiometric filter-binding kinase assay, Kinase HotSpot
condition set: compound 0.5 µM; ATP 10 µM
Express your answer in %, writing the number without its unit.

Solved cases (2 shown):
smiles entry	tgt	residual activity, %
N#CCCc1ccc2c(c1)-c1[nH]c3ccc([N+](=O)[O-])cc3c1CC(=O)N2	ARAF (human), P10398 [Y301D/Y302D]	94.5
Oc1cccc(-c2nc(N3CCOCC3)c3oc4ncccc4c3n2)c1	ARAF (human), P10398 [Y301D/Y302D]	92

Q) Which value of residual activity has been reported for O=C(CCCc1ccc(-c2ccccc2F)cc1)Nc1ccc(O)cc1 in the records?
A) 104

Q) Please report the recorded residual activity for N#Cc1c[nH]c2c[nH]/c(=N\Cc3cccnc3)cc2/c1=N\c1ccc(F)c(Cl)c1 .
A) 106

Q) What value of measured residual activity is listed for Nc1nc(Nc2ccc(S(N)(=O)=O)cc2)nn1C(=O)c1c(F)cccc1F ?
A) 93.1

Q) Give the measured residual activity of Cc1cccc(-c2nc(C(C)(C)C)[nH]c2-c2ccc3c(c2)OCO3)n1 .
A) 99.1

Q) Requested read-out: residual activity. Entry: Clc1ccc(Nc2nnc(Cc3ccncc3)c3ccccc23)cc1
A) 97.6

Q) Form field: reported residual activity of O=C(Nc1cccc(Nc2cc(Nc3cccc(C(F)(F)F)c3)ncn2)c1)C1CC1
A) 95.1

Q) Name the reported residual activity value associated with the molecule CN(C)CCCn1cc(C2=C(c3c[nH]c4ccccc34)C(=O)NC2=O)c2ccccc21
A) 100

Q) Reported residual activity, molecule CN(C)S(=O)(=O)c1ccc2c(c1)/C(=C/c1cc3c([nH]1)CCCC3)C(=O)N2 : ____
A) 105

Sourced from the kinase profiling compilation of Christmann-Franck et al. (2016)
